Target: T1, human TL1A extracellular domain with N-terminal HIS and FLAG tag (human, UniProt O95150 72-251)
T1 construct: whole entry named. ~70 kDa fraction purified by gel filtration
T1 sequence: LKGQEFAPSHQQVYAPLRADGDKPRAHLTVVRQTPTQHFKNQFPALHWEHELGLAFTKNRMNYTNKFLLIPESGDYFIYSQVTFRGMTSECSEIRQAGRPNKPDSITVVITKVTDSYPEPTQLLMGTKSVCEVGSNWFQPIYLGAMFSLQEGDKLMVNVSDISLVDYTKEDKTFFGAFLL
Experiment: SPR run 3; supernatant on Protein A; TL1A 10 ug/mL; timepoint 590
experimental_readout: TL1A Binding Level (Late) (RU)
Give the quantity in RU, number only.

binder	unit_label	numeric_result
320-305 (antibody, human IgG1, name in Kabat numbering, V domains shown, human IgG1, lambda) VH: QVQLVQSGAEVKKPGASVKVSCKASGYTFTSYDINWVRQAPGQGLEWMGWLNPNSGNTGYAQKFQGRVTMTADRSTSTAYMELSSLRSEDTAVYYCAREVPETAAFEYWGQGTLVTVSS VL: QSVLTQPPSVSGAPGQRVTISCTSSSSDIGAGLGVDWYQQLPGTAPKLLIEGYYNRPSGVPDRFSGSKSGTSASLTITGLLPEDEGDYYCQSYDGTLSALFGGGTKLTVLG	RU	10

Lab note: measured TL1A Binding Level (Late) of 320-306 (antibody, human IgG1, name in Kabat numbering, V domains shown, human IgG1, lambda) VH: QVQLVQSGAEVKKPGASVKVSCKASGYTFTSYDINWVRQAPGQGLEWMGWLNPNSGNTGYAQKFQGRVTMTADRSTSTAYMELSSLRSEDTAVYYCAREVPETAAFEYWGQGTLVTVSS VL: QSVLTQPPSVSGAPGQRVTISCTSSSSDIGAGLGVKWYQQLPGTAPKLLIEGYYNRPSGVPDRFSGSKSGTSASLTITGLLPEDEGDYYCQSYDGTLSALFGGGTKLTVLG was 133

Lab note: measured TL1A Binding Level (Late) of 320-309 (antibody, human IgG1, name in Kabat numbering, V domains shown, human IgG1, lambda) VH: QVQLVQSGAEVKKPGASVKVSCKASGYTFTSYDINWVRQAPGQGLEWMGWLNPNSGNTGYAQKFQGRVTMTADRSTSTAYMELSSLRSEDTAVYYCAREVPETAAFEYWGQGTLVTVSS VL: QSVLTQPPSVSGAPGQRVTISCTSSSSDIGAGLGVYWYQQLPGTAPKLLIEGYYNRPSGVPDRFSGSKSGTSASLTITGLLPEDEGDYYCQSYDGTLSALFGGGTKLTVLG was 40

Lab note: measured TL1A Binding Level (Late) of 320-280 (antibody, human IgG1, name in Kabat numbering, V domains shown, human IgG1, lambda) VH: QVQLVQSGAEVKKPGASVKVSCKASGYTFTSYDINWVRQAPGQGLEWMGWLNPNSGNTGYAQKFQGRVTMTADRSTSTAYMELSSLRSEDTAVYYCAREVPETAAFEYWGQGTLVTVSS VL: QSVLTQPPSVSGAPGQRVTISCTSSSSDIGAGHGVHWYQQLPGTAPKLLIEGYYNRPSGVPDRFSGSKSGTSASLTITGLLPEDEGDYYCQSYDGTLSALFGGGTKLTVLG was 211

Lab note: measured TL1A Binding Level (Late) of 320-302 (antibody, human IgG1, name in Kabat numbering, V domains shown, human IgG1, lambda) VH: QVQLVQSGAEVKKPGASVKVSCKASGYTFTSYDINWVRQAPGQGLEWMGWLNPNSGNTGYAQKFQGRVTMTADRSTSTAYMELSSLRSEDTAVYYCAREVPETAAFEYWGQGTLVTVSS VL: QSVLTQPPSVSGAPGQRVTISCTSSSSDIGAGLGVAWYQQLPGTAPKLLIEGYYNRPSGVPDRFSGSKSGTSASLTITGLLPEDEGDYYCQSYDGTLSALFGGGTKLTVLG was 74

Lab note: measured TL1A Binding Level (Late) of 320-282 (antibody, human IgG1, name in Kabat numbering, V domains shown, human IgG1, lambda) VH: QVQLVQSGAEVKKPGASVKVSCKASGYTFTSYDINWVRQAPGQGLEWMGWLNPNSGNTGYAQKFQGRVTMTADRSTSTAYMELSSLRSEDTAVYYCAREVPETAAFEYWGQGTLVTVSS VL: QSVLTQPPSVSGAPGQRVTISCTSSSSDIGAGWGVHWYQQLPGTAPKLLIEGYYNRPSGVPDRFSGSKSGTSASLTITGLLPEDEGDYYCQSYDGTLSALFGGGTKLTVLG was 16
